molecules and their reported Activity
Assay: Mutagenicity in Salmonella typhimurium TA97 assessed as revertant/ug measured after 20 mins in presence of S9 fraction by microsome assay
Assay type: toxicity, subcellular
Conditions: salmonella enterica subsp. enterica serovar typhimurium, s9, 20 min
Reported Endpoint: Activity (µg)

>>> obs_value("CCCCCc1ccc(-c2cn(-c3c([N+](=O)[O-])ncn3C)nn2)cc1")
8.494
>>> obs_value("CCOC(=O)c1cn(-c2c([N+](=O)[O-])ncn2C)nn1")
0.714
>>> obs_value("Cn1cnc([N+](=O)[O-])c1-n1cc(C2CC2)nn1")
3.833

---

Assay: Cytotoxicity against human HepG2 cells assessed as reduction in cell viability measured after 24 hrs by WST1 assay
Type: cell-based
Reported Endpoint: GI50 at 24 h

>>> obs_value("CCOC(=O)c1cn(-c2c([N+](=O)[O-])ncn2C)nn1")
"> 376 µM"
>>> obs_value("O=C(Cn1ccnc1[N+](=O)[O-])NCc1ccccc1")
"> 500 µM"
>>> obs_value("Cn1cnc([N+](=O)[O-])c1-n1cc(C2CC2)nn1")
"> 427 µM"
>>> obs_value("CCCCCc1ccc(-c2cn(-c3c([N+](=O)[O-])ncn3C)nn2)cc1")
"> 350 µM"

---

Assay: Cytotoxicity against mouse RAW264.7 cells assessed as reduction in cell viability measured after 24 hrs by WST1 assay
Format: cell-based
Reported Endpoint: GI50 at 24 h

>>> obs_value("CCCCCc1ccc(-c2cn(-c3c([N+](=O)[O-])ncn3C)nn2)cc1")
"35.8 µM"
>>> obs_value("Cn1cnc([N+](=O)[O-])c1-n1cc(C2CC2)nn1")
"> 427 µM"
>>> obs_value("CCOC(=O)c1cn(-c2c([N+](=O)[O-])ncn2C)nn1")
"> 376 µM"
>>> obs_value("O=C(Cn1ccnc1[N+](=O)[O-])NCc1ccccc1 [BENZNIDAZOLE]")
"> 500 µM"

---

Assay: Genotoxicity in mouse RAW264.7 cells assessed as survival at 1880 uM measured after 24 hrs by micronucleus test (reference value: 100%)
Type: toxicity, cell-based
Conditions: read-out: Survival
Reported Endpoint: viability at 24 h, 1880 µM (%)

>>> obs_value("CCOC(=O)c1cn(-c2c([N+](=O)[O-])ncn2C)nn1")
95

---

Test: Selectivity index, ratio of GI50 for human HepG2 cells assessed as reduction in cell viability measured after 24 hrs by WST1 assay to IC50 for antitrypanosomal activity against bloodstream form of Trypanosoma cruzi Y trypomastigotes infected in African green monkey Vero cells
Assay type: toxicity
Details: read-out: Selectivity Index
# Lookup of reported selectivity ratio at 24 h keyed by entry
Reported Endpoint: selectivity ratio at 24 h

>>> obs_value("CCCCCc1ccc(-c2cn(-c3c([N+](=O)[O-])ncn3C)nn2)cc1")
27
>>> obs_value("O=C(Cn1ccnc1[N+](=O)[O-])NCc1ccccc1 [BENZNIDAZOLE]")
"> 56"
>>> obs_value("CCOC(=O)c1cn(-c2c([N+](=O)[O-])ncn2C)nn1")
"> 8.3"
>>> obs_value("Cn1cnc([N+](=O)[O-])c1-n1cc(C2CC2)nn1")
"> 79"

---

Assay: Genotoxicity in mouse RAW264.7 cells assessed as survival at 3760 uM measured after 24 hrs by micronucleus test (reference value: 100%)
Format: toxicity, cell-based
Conditions: read-out: Survival
Reported Endpoint: viability at 24 h, 3760 µM (%)

>>> obs_value("CCOC(=O)c1cn(-c2c([N+](=O)[O-])ncn2C)nn1")
90
